# assayRemarks: Acute ocular PK in rats following a single IP administration
# Format: in vivo, rat
# conditionNotes: male, Sprague-Dawley, 8.8 mg/kg; rat eye; single IP; 24 h; read-out: remaining intraocular concentration at 24 h
propertyMeasured: concentration at 24 h

Entry COC1CCCN(C(=O)/C=C/C(C)=C/C=C/C(C)=C/C=C/C=C(C)/C=C/C=C(C)\C=C\C(=O)O)C1 (stereo not shown) [BIO203] has what concentration at 24 h?
~2 ng/mL
